Test system: MDA-MB-435
protocol-text: In vitro tumor cell proliferation, MDA-MB-435
Format: cell-based
assay-context: MDA-MB-435; values given with an undefined *; trihydrochloride; read-out: In vitro Tumor Cell Proliferation (IC50, μM) Breast MDA-MB-435
Method: The proliferation of tumor cells was measured using a sulforhodamine B assay as described in Skehan, P., et al., J. Natl. Cancer Inst. […] Tumor cells were harvested with trypsin-EDTA, cells that excluded trypan blue were counted, added to 96-well plates and incubated overnight at 37° C. […] Alternatively, the CyQUANT cell proliferation assay was used to quantitate cell proliferation. Alternatively, the CyQUANT cell proliferation assay was used to quantify tumor cell proliferation. […]
Structures can show the parent of a compound that is named as a salt.
For each record, check the reported IC50: if it is below 0.8 µM write criterion met, else write criterion not met.

Reference set, count: 3
N[C@H]1CC[C@H](Nc2nc(NC3CCN(Cc4ccccc4)CC3)c3ncn(C4CCCC4)c3n2)CC1 [Example 33, trihydrochloride] = criterion met
N[C@H]1CC[C@H](Nc2nc(NC3CCN(Cc4cc(F)cc(F)c4)CC3)c3ncn(C4CCCC4)c3n2)CC1 [Example 147-g, trihydrochloride] = criterion met
N[C@H]1CC[C@H](Nc2nc(NC3CCN(Cc4ccccc4C(F)(F)F)CC3)c3ncn(C4CCCC4)c3n2)CC1 [Example 147-b, trihydrochloride] = criterion not met

QUERY: # strict comparison: is reported IC50 < 0.8 µM? input = N[C@H]1CC[C@H](Nc2nc(NC3CCN(Cc4c(F)cccc4Cl)CC3)c3ncn(C4CCCC4)c3n2)CC1 [Example 147-n, trihydrochloride]
RESULT: criterion not met

QUERY: Strictly below 0.8 µM: is that where IC50 of N[C@H]1CC[C@H](Nc2nc(NC3CCN(Cc4cc(Cl)cc(Cl)c4)CC3)c3ncn(C4CCCC4)c3n2)CC1 [Example 147-w, trihydrochloride] sits?
RESULT: criterion met

---

Test system: HCT-15
protocol-text: In vitro tumor cell proliferation, HCT-15
Type: cell-based, human
assay-context: HCT-15; read-out: In vitro Tumor Cell Proliferation (IC50, μM) Colon HCT-15
readout: IC50 (µM)
Answers are plain numbers, in µM.

QUERY: Returns the measured IC50 for the input molecule. Input: Cn1cnc2c(NCc3ccccc3)nc(NCCO)nc21 [Olomoucine, reference compound]
RESULT: 63

---

Test system: A549
protocol-text: In vitro tumor cell proliferation, A549
Format: cell-based, human
assay-context: Homo sapiens, A549, A549; many values given with an undefined *; read-out: In vitro Tumor Cell Proliferation (IC50, μM) Lung A549
Counter-ions that a name gives are not always drawn.
Quick rule for you: IC50 under 1 µM gets 1, anything else gets 0.

N[C@H]1CC[C@H](Nc2nc(NCc3cccc4ccccc34)c3ncn(C4CCCC4)c3n2)CC1 [Example 7, dihydrochloride] = 0

QUERY: Report whether reported IC50 is lower than 1 µM (strictly) for N[C@H]1CC[C@H](Nc2nc(NC3CCN(Cc4ccccc4F)CC3)c3ncn(C4CCCC4)c3n2)CC1 [Example 147-k, trihydrochloride]
RESULT: 1

QUERY: Item N[C@H]1CC[C@H](Nc2nc(NC3CCN(Cc4c(F)cccc4F)CC3)c3ncn(C4CCCC4)c3n2)CC1 [Example 147-v, trihydrochloride] : IC50 beneath 1 µM, strictly?
RESULT: 1

QUERY: is_below(IC50, 1 µM) for N[C@H]1CC[C@H](Nc2nc(NC3CCN(Cc4ccccc4OC(F)(F)F)CC3)c3ncn(C4CCCC4)c3n2)CC1 [Example 147-ab, trihydrochloride] ?
RESULT: 1

QUERY: For N[C@H]1CC[C@H](Nc2nc(N[C@H]3CC[C@H](O)CC3)c3ncn(C4CCCC4)c3n2)CC1 [Example 145a, dihydrochloride] , is the recorded IC50 below the cut-off of 1 µM?
RESULT: 0

QUERY: Here's an entry: COc1ccc(CCNc2nc(N[C@H]3CC[C@H](N)CC3)nc3c2ncn3C2CCCC2)cc1 [Example 14, dihydrochloride] . Is its IC50 below 1 µM?
RESULT: 0
